test: protein stability index of a GFP-peptide fusion (yeast GPS) (PSI 1-4); higher = more stable; sorted into four equal gates, so the index is relative within each strain
condition info: pdr5∆
Please use true whenever protein stability index is not below 3, and false whenever it is.

Evaluate LGSGSLAAMAVLESHWK [PUP1] : protein stability index at minimum 3?
true

Evaluate LAIADSPQKFETNLQTF [ECM29] : protein stability index at minimum 3?
true

Evaluate IKGQCLATLLGHNDWVS [ASC1] : protein stability index at minimum 3?
false

Evaluate IIRHEKELEPWDLQLQE [SMC4] : protein stability index at minimum 3?
false

Evaluate KEEISDQKPIEHIKEGS [SWI3] : protein stability index at minimum 3?
false

Evaluate NTHLGARNVQVHQEPYV [RPS0A] : protein stability index at minimum 3?
false

Evaluate LLHEMTQTYMQMIELNR [GRR1] : protein stability index at minimum 3?
false

Evaluate FNTFWDEKGNEIKVGKQ [ARP9] : protein stability index at minimum 3?
false

Evaluate IADKTTYDKETITDLIE [SIR4] : protein stability index at minimum 3?
true

Evaluate LQDELKELQLEKESVEK [SMC3] : protein stability index at minimum 3?
true

Evaluate TYGVPGSENKRGSLDSE [NUT1] : protein stability index at minimum 3?
true

Evaluate LGLAKSVHHARVLITQR [RPS9A] : protein stability index at minimum 3?
false

Evaluate NVPWPQNSYADKVTSQA [RPP1] : protein stability index at minimum 3?
false

Evaluate MSGLPPPPPGFEEDSDL [PRP8] : protein stability index at minimum 3?
true

Evaluate TTDDKSMDTKKKHKQKK [BRN1] : protein stability index at minimum 3?
true

Evaluate EDEEKILDNTENYDDTE [DSN1] : protein stability index at minimum 3?
true

Evaluate GWDSLASRNVWSFYNGN [SNU114] : protein stability index at minimum 3?
true

Evaluate TIEKDKMKIQETISKLN [SMC2] : protein stability index at minimum 3?
false

Evaluate PRSDAQAIKEASYVNIP [RPS0A] : protein stability index at minimum 3?
false

Evaluate PGHEMEDFLDKSYYLNT [AAR2] : protein stability index at minimum 3?
true
